Assay: Cytotoxicity against African green monkey Vero cells after 3 days by hemocytometry
Format: cell-based
Conditions: chlorocebus sabaeus
Listed below: CC50 at 72 h values for each entry.
parameter: CC50 at 72 h

>>> result("CC(C)(C)OC(=O)NOc1nc(N)nc2c1ncn2[C@@H]1O[C@H](CO)[C@@H](O)[C@@]1(C)O")
"> 100 µM"
>>> result("CCOC(=O)[C@H](C)NP(=O)(OC[C@H]1O[C@@H](n2cnc3c(N)nc(O)nc32)[C@](C)(O)[C@@H]1O)Oc1ccccc1 (stereo not given in full)")
"> 100 µM"
>>> result("CCOC(=O)[C@H](C)NP(=O)(OC[C@H]1O[C@@H](n2cnc3c(N)nc(NOC)nc32)[C@](C)(O)[C@@H]1O)Oc1ccccc1 (stereo not given in full)")
"18 µM"
>>> result("C=C(OCC)c1nc(N)nc2c1ncn2[C@@H]1O[C@H](COP(=O)(N[C@@H](C)C(=O)OCC)Oc2ccccc2)[C@@H](O)[C@@]1(C)O (stereo not given in full)")
"> 100 µM"
>>> result("CC(C)(CO)C(=O)SCCOP(=O)(NCc1ccccc1)OC[C@H]1O[C@@H](n2cnc3c(=O)[nH]c(N)nc32)[C@](C)(O)[C@@H]1O (stereo not given in full)")
"> 100 µM"

====

Experiment: Cytotoxicity against human PBMC after 6 days by trypan blue exclusion assay
Type: cell-based
Conditions: PBMC (peripheral blood mononuclear cells)
CC50 at 144 h values by entry
parameter: CC50 at 144 h

>>> result("C[C@@]1(O)[C@H](O)[C@@H](CO)O[C@H]1n1cnc2c(N)nc(N=[N+]=[N-])nc21")
"> 100 µM"
>>> result("C[C@@]1(O)[C@H](O)[C@@H](CO)O[C@H]1n1cnc2c(N)nc(Cl)nc21")
"> 100 µM"
>>> result("CCOC(=O)[C@H](C)NP(=O)(OC[C@H]1O[C@@H](n2cnc3c(OC)nc(ONC(=O)OCc4ccccc4)nc32)[C@](C)(O)[C@@H]1O)Oc1ccccc1 (stereo partly drawn)")
"> 100 µM"
>>> result("CCOC(=O)[C@H](C)NP(=O)(OC[C@H]1O[C@@H](n2cnc3c(N)nc(Cl)nc32)[C@](C)(O)[C@@H]1O)Oc1ccccc1 (stereo partly drawn)")
"> 100 µM"
>>> result("CCOC(=O)[C@H](C)NP(=O)(OC[C@H]1O[C@@H](n2cnc3c(N)nc(NOC)nc32)[C@](C)(O)[C@@H]1O)Oc1ccccc1 (stereo partly drawn)")
"> 100 µM"
>>> result("CONc1nc(N)nc2c1ncn2[C@@H]1O[C@H](CO)[C@@H](O)[C@@]1(C)O")
"> 100 µM"
>>> result("COc1nc(Cl)nc2c1ncn2[C@@H]1O[C@H](CO)[C@@H](O)[C@@]1(C)O")
"> 100 µM"
>>> result("CCOC(=O)[C@H](C)NP(=O)(OC[C@H]1O[C@@H](n2cnc3c(NOC)nc(N)nc32)[C@](C)(O)[C@@H]1O)Oc1ccccc1 (stereo partly drawn)")
"> 100 µM"

====

Assay: Cytotoxicity against human HuH7 cells infected with HCV assessed as reduction in cellular rRNA level after 96 hrs by qRT-PCR analysis
Type: cell-based, Huh-7
parameter: CC50 at 96 h

>>> result("CCOC(=O)[C@H](C)NP(=O)(OC[C@H]1O[C@@H](n2cnc3c(OC)nc(OC)nc32)[C@](C)(O)[C@@H]1O)Oc1ccccc1 (stereo partly drawn)")
"> 10 µM"
>>> result("CCOC(=O)[C@H](C)NP(=O)(OC[C@H]1O[C@@H](n2cnc3c(N)nc(F)nc32)[C@](C)(O)[C@@H]1O)Oc1ccccc1 (stereo partly drawn)")
"> 10 µM"
>>> result("COc1nc(N)nc2c1ncn2[C@@H]1O[C@H](COP(=O)(N[C@@H](C)C(=O)OCC(C)(C)C)Oc2cccc3ccccc23)[C@@H](O)[C@@]1(C)O (stereo partly drawn)")
"0.8 µM"
>>> result("C[C@@]1(O)[C@H](O)[C@@H](CO)O[C@H]1n1cnc2c(N)nc(O)nc21")
"> 10 µM"
>>> result("C[C@@]1(O)[C@H](O)[C@@H](CO)O[C@H]1n1cnc2c(N)nc(ONC(=O)OCc3ccccc3)nc21")
"> 10 µM"
>>> result("CC(C)(C)OC(=O)NOc1nc(N)nc2c1ncn2[C@@H]1O[C@H](CO)[C@@H](O)[C@@]1(C)O")
"> 10 µM"
>>> result("CCOC(=O)[C@H](C)NP(=O)(OC[C@H]1O[C@@H](n2cnc3c(ONC(=O)OC(C)(C)C)nc(N)nc32)[C@](C)(O)[C@@H]1O)Oc1ccccc1 (stereo partly drawn)")
"> 10 µM"
>>> result("C[C@@]1(O)[C@H](O)[C@@H](CO)O[C@H]1n1cnc2c(N)nc(F)nc21")
"> 10 µM"
>>> result("COc1nc(Cl)nc2c1ncn2[C@@H]1O[C@H](CO)[C@@H](O)[C@@]1(C)O")
"> 10 µM"
>>> result("COc1nc(O)nc2c1ncn2[C@@H]1O[C@H](CO)[C@@H](O)[C@@]1(C)O")
"> 10 µM"
>>> result("CCOC(=O)[C@H](C)NP(=O)(OC[C@H]1O[C@@H](n2cnc3c(N)nc(ONC(=O)OCc4ccccc4)nc32)[C@](C)(O)[C@@H]1O)Oc1ccccc1 (stereo partly drawn)")
"> 33 µM"
>>> result("COc1nc(ONC(=O)OCc2ccccc2)nc2c1ncn2[C@@H]1O[C@H](CO)[C@@H](O)[C@@]1(C)O")
"> 10 µM"
>>> result("CCOC(=O)[C@H](C)NP(=O)(OC[C@H]1O[C@@H](n2cnc3c(NOC)nc(N)nc32)[C@](C)(O)[C@@H]1O)Oc1ccccc1 (stereo partly drawn)")
"> 10 µM"
